This collection of values is drawn from patent US7297704B2.

Biological target: cloned human 5-HT1A receptors (Homo sapiens)
Construct: expressed in transfected cells
Sequence (P08908 whole entry): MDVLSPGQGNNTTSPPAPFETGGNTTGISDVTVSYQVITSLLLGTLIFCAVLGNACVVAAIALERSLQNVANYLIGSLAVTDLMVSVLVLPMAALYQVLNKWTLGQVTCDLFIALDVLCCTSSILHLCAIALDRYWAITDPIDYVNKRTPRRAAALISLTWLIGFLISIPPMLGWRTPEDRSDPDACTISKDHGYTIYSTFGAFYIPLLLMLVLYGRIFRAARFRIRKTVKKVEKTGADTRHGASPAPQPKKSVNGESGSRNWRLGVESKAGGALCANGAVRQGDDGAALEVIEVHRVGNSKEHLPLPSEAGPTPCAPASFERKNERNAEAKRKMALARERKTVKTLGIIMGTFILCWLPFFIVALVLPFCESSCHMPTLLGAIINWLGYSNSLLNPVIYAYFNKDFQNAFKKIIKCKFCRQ
Assay: 35S-GTPγS binding assay
Type: biochemical
Details: superscript d; maximum inhibitory effect
Where a name gives a salt, the structure may show the parent alone.
PARAMETER_MEASURED: Imax (maximum inhibitory effect) (%)
Please respond with the number in % and leave the unit unwritten.

compound="CCN(CC1CCc2[nH]c3ccc(F)cc3c2C1)C[C@H]1COc2ccc3nc(C)ccc3c2O1 (stereo partly drawn) [Example 50, dihydrochloride dihydrate]" recorded_measurement=100
compound="Cc1ccc2c3c(ccc2n1)OC[C@H](CNCC1CCc2sc4ccccc4c2C1)O3 (single isomer, unassigned) [32 diastereomers 1]" recorded_measurement=100
compound="Cc1ccc2c3c(ccc2n1)OC[C@H](CNCC[C@H]1CCc2[nH]c4ccc(F)cc4c2C1)O3 (single isomer, unassigned) [Example 42, dihydrochloride]" recorded_measurement=71
compound="Cc1ccc2c3c(ccc2n1)OC[C@H](CNC1CCc2c([nH]c4ccccc24)C1)O3.Cl.Cl (mixture of isomers) [Example 43, dihydrochloride]" recorded_measurement=98.5
compound="Cc1ccc2c3c(ccc2n1)OC[C@H](CNCCC1CCc2[nH]c4ccc(F)cc4c2C1)O3 (mixture of isomers) [Example 40, dihydrochloride]" recorded_measurement=34
compound="Cc1ccc2c3c(ccc2n1)OC[C@H](CNCC1CCc2c(sc4cc(F)ccc24)C1)O3 (single isomer, unassigned) [39 diastereomer 1]" recorded_measurement=100

Problem: // lookup Imax (maximum inhibitory effect) for Cc1ccc2c3c(ccc2n1)OC[C@H](CN(CC1CC1)C[C@@H]1CCc2[nH]c4ccc(F)cc4c2C1)O3 [Example 55, dihydrochloride dihydrate]
Result: 74

Problem: Same lookup for CCCN(C[C@@H]1CCc2[nH]c3ccc(F)cc3c2C1)C[C@H]1COc2ccc3nc(C)ccc3c2O1 [Example 54, dihydrochloride dihydrate] , please.
Result: 63

Problem: Same lookup for Cc1ccc2c3c(ccc2n1)OC[C@H](CN(CC1CC1)CC1CCc2[nH]c4ccc(F)cc4c2C1)O3 (stereo partly drawn) [Example 52, dihydrochloride dihydrate] , please.
Result: 100

====

Measured melting point by item
Structures can show the parent of a compound that is named as a salt.

# annotated cases, reported melting point shown
compound="Cc1ccc2c3c(ccc2n1)OC[C@H](CNCC1CCc2[nH]c4cc(F)ccc4c2C1)O3 (some centres unmarked) [Example 13]" parameter_measured="melting point" recorded_measurement="89 to 97 °C"
compound="Cc1ccc2c3c(ccc2n1)OC[C@H](CN(C)C[C@H]1CCc2c(c4cc(F)ccc4n2C)C1)O3.Cl.O (hydrate or solvate) [Example 68]" parameter_measured="melting point" recorded_measurement="248 to 258 °C"
compound="Cc1ccc2c3c(ccc2n1)OC[C@H](CNC[C@H]1CCc2[nH]c4c(F)cc(F)cc4c2C1)O3.Cl.Cl [Example 10]" parameter_measured="melting point" recorded_measurement="267 to 275 °C"
compound="Cc1ccc2c3c(ccc2n1)OC[C@H](CN(CC1CC1)CC1CCc2[nH]c4ccc(F)cc4c2C1)O3.Cl.Cl.O.O (some centres unmarked) (hydrate or solvate) [Example 52]" parameter_measured="melting point" recorded_measurement="215 to 230 °C"
compound="CCCN(C[C@@H]1CCc2[nH]c3ccc(F)cc3c2C1)C[C@H]1COc2ccc3nc(C)ccc3c2O1.Cl.Cl.O.O (hydrate or solvate) [Example 54]" parameter_measured="melting point" recorded_measurement="225 to 240 °C"

Problem: // lookup melting point for CCCN(CC1CCc2[nH]c3ccc(F)cc3c2C1)C[C@H]1COc2ccc3nc(C)ccc3c2O1.Cl.Cl.O.O (some centres unmarked) (hydrate or solvate) [Example 51]
Result: 187 to 201 °C

Problem: Same lookup for Cc1ccc2c3c(ccc2n1)OC[C@H](CNC[C@@H]1CCc2[nH]c4ccc(C#N)cc4c2C1)O3.Cl.Cl [Example 15] , please.
Result: 254 to 258 °C

Problem: Same lookup for Cc1ccc2c3c(ccc2n1)OC[C@H](CN(CC1CC1)C[C@@H]1CCc2[nH]c4ccc(F)cc4c2C1)O3.Cl.Cl.O.O (hydrate or solvate) [Example 55] , please.
Result: 210 to 225 °C

Problem: Same lookup for Cc1ccc2c3c(ccc2n1)OCC(CN(CC1CCc2c(c4cc(F)ccc4n2C)C1)C(C)C)O3 (centres unmarked) (as salt: hydrochloride) (hydrate or solvate) [Example 65, monohydrochloride monohydrate] , please.
Result: 201 to 222 °C

Problem: Same lookup for Cc1ccc2c3c(ccc2n1)OC[C@H](CNCC1CCc2c(c4c(F)cccc4n2C)C1)O3 (some centres unmarked) [Example 12] , please.
Result: 84 to 90 °C

Problem: Same lookup for Cc1ccc2c3c(ccc2n1)OC[C@H](CNC[C@@H]1CCc2[nH]c4c(F)cc(F)cc4c2C1)O3.Cl.Cl [Example 9] , please.
Result: 260 to 272 °C

Problem: Same lookup for Cc1ccc2c3c(ccc2n1)OC[C@H](CN(CC1CCc2c(c4cc(F)ccc4n2C)C1)C1CCCCC1)O3.Cl.O (some centres unmarked) (hydrate or solvate) [Example 67] , please.
Result: 204 to 225 °C

Problem: Same lookup for Cc1ccc2c3c(ccc2n1)OC[C@H](CNCC1CCc2[nH]c4ccc(F)cc4c2C1)O3 (mixture of isomers) [Example 2] , please.
Result: 89 to 97 °C

Problem: Same lookup for Cc1ccc2c3c(ccc2n1)OC[C@H](CN(CC1CCc2c(c4cc(F)ccc4n2C)C1)C1CCCC1)O3.Cl.O (some centres unmarked) (hydrate or solvate) [Example 66] , please.
Result: 206 to 222 °C

Problem: Same lookup for Cc1ccc2c3c(ccc2n1)OC[C@H](CN(C[C@@H]1CCc2[nH]c4ccc(F)cc4c2C1)C1CCCC1)O3.Cl.O (hydrate or solvate) [Example 59] , please.
Result: 225 to 243 °C

Problem: Same lookup for Cc1ccc2c3c(ccc2n1)OC[C@H](CNC1CCc2c([nH]c4ccc(F)cc24)C1)O3 (mixture of isomers) (as salt: hydrochloride) [Example 46] , please.
Result: 226 to 228 °C (dec.)

Problem: Same lookup for Cc1ccc2c3c(ccc2n1)OC[C@H](CNCC1CCc2[nH]c4cccc(F)c4c2C1)O3.Cl.Cl (some centres unmarked) [Example 11] , please.
Result: 220 to 230 °C

Problem: Same lookup for Cc1ccc2c3c(ccc2n1)OC[C@H](CN(CC1CCc2[nH]c4ccc(F)cc4c2C1)C1CCC1)O3.Cl.Cl.O.O (some centres unmarked) (hydrate or solvate) [Example 53] , please.
Result: 220 to 235 °C
